Target: GRASP, Q7Z6J2
Sequence (Q7Z6J2 96-193): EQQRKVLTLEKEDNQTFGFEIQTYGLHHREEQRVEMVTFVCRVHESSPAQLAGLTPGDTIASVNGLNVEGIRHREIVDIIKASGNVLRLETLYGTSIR
Assay: holdup assay
Design: key: below the threshold = too weak to quantify, mostly under pKd 3.1 to 4
Conditions: plain residues with an end cap or a label only (N-terminal biotin on a linker: ttds)
test.readout: pKd

[[record]]
binder = "ERKLSSESQV [LRP4, O75096]"
result = "below the threshold"

[[record]]
binder = "SVWLRKETRV [CYSLTR2, Q9NS75]"
result = "below the threshold"

[[record]]
binder = "SSRTRRETQL [HPV16-E6, P03126]"
result = "below the threshold"

